Assay: Toxicity liver stage against HepG2, at 10uM
Assay type: cell-based
Parameters: test concentration 10 uM, cell line HepG2-A16-CD81EGFP
Details: human, HepG2-A16-CD81EGFP cells; read-out: INHIBITION
property name: cytotoxicity at 10 µM (%)
Respond with the bare value in %.

Cn1cnnc1C1CCN(C(=O)CCCOc2ccccc2)CC1 ... -7.62
OC(CN1CCOCC1)c1ccc(OC(F)(F)F)cc1 (stereo not drawn) ... -9.36
Cc1ccc(N2CCC(N3C[C@@H](CN(C)C)[C@@H](CO)C3)CC2)cc1 ... -0.608
O=C(c1ncccn1)N1CC[C@H]2OCC[C@@]2(COc2ccccn2)C1 ... -146
COc1ccc(-c2cc(=O)n3c(n2)CCCCC3)cc1 ... -14.1
O=C([C@H]1CCCO1)N1Cc2nccn2CC(COc2cccnc2)C1 (stereo partly drawn) ... 7.45
CC(C)(C)NC(=O)CNc1ncc(Br)cn1 ... 2.96
CC1CCC(NCCNC(=O)c2cccs2)CC1 (stereo not drawn) ... -11.8
O=C(NCc1cnc2n1CCN(Cc1ccoc1)C2)c1ccno1 ... -93
CS(=O)(=O)CCCNC1(c2cccc(F)c2)CC1 ... -3.39

Ask | Consider the compound shown here: COCCN1CCc2cc(C(=O)N(C)C)c(NCC3CC3)nc2CC1 What is its recorded cytotoxicity at 10 µM?
Reply | 4.44

Ask | Consider the compound shown here: CN(C)[C@@H]1CCN(C(=O)c2ccsc2)[C@H]1Cc1cnn(C)c1 What is its recorded cytotoxicity at 10 µM?
Reply | -6.18

Ask | Consider the compound shown here: CCC(C)NC(=O)c1ccc(CNC(=O)COC)cc1 (stereo not drawn) What is its recorded cytotoxicity at 10 µM?
Reply | 10.7

Ask | Consider the compound shown here: COCC(=O)N1C[C@@H]2COC[C@]2(COC)C1 What is its recorded cytotoxicity at 10 µM?
Reply | 5.44

Ask | Consider the compound shown here: CC(C)Cn1cc(NCc2cscn2)cn1 What is its recorded cytotoxicity at 10 µM?
Reply | 3.86

Ask | Consider the compound shown here: NC(=O)CN1CCC(C(=O)N2CCCC(OCc3cccnc3)C2)CC1 (stereo not drawn) What is its recorded cytotoxicity at 10 µM?
Reply | -1.88

Ask | Consider the compound shown here: CCc1cc(CNC(=O)N2Cc3ccccc3N(C)CC2C)[nH]n1 (stereo not drawn) What is its recorded cytotoxicity at 10 µM?
Reply | 16.3

Ask | Consider the compound shown here: CCOCC(=O)N1C[C@@H](NC(C)=O)[C@H](c2ccc(OC)cc2)C1 What is its recorded cytotoxicity at 10 µM?
Reply | -9.44

Ask | Consider the compound shown here: CCNc1ncc(C(=O)NC2CCOCC2)cn1 What is its recorded cytotoxicity at 10 µM?
Reply | 4.37

Ask | Consider the compound shown here: CC1CCN(c2ccnc3ccc(Br)cc23)CC1 What is its recorded cytotoxicity at 10 µM?
Reply | 15.4

Ask | Consider the compound shown here: CCc1nnc(CN2CCC(C3CCCCCN3C(C)=O)CC2)o1 (stereo not drawn) What is its recorded cytotoxicity at 10 µM?
Reply | -43

Ask | Consider the compound shown here: c1cnc(N2CCC3(CCN(CC4CCOC4)CC3)C2)nc1 (stereo not drawn) What is its recorded cytotoxicity at 10 µM?
Reply | -5.56

Ask | Consider the compound shown here: O=C(N1CCCC1)N1CCC2(CC(=O)N(c3ccc4c(c3)OCO4)C2)C1 (stereo not drawn) What is its recorded cytotoxicity at 10 µM?
Reply | 9.79

Ask | Consider the compound shown here: Cc1cc(C)n(CC2CCCN2CC(=O)N(C)Cc2ccc(C)o2)n1 (stereo not drawn) What is its recorded cytotoxicity at 10 µM?
Reply | -15.4

Ask | Consider the compound shown here: CCN1CCN(C(=O)C2CCCc3[nH]ncc32)CC1 (stereo not drawn) What is its recorded cytotoxicity at 10 µM?
Reply | -1.21

Ask | Consider the compound shown here: CCNC(=O)N1CCC(n2ccc(C(F)(F)F)n2)CC1 What is its recorded cytotoxicity at 10 µM?
Reply | 10.5

Ask | Consider the compound shown here: CN1CCN(C(=O)N2CC[C@@](O)(c3ccccc3)[C@H]3CCCC[C@@H]32)CC1 What is its recorded cytotoxicity at 10 µM?
Reply | -9.67

Ask | Consider the compound shown here: CN1CCc2c(sc3c2C(=O)NC(C=Cc2ccccc2)N3)C1 (stereo not drawn) What is its recorded cytotoxicity at 10 µM?
Reply | 6.33
